The values you see were collected from ChEMBL document CHEMBL2069168.

Please respond with reported Activity for every item in the list.
Tested on: Splenocyte
Assay: Immunostimulatory activity in C57BL/6 mouse splenocytes assessed as IFN-gamma release at 100 ng/ml after 72 hrs by ELISA relative to OCH
Assay type: functional
Numbers only, in %.

> print(dat)
                               query.smiles      target   measure  measurement.unit  observed
1  CCCCCCCCCCCCCCCCCCCCCCCCCC(=O)N[C@@H](CO[C@H]1O[C@H](CO)[C@H](O)[C@H](O)[C@H]1O)[C@H](O)[C@H](O)CCCCCCCCCCCCCC  Splenocyte  Activity                 %       569
2  CCCCCCCCCCCCCCCCCCCCCCCC(=O)N[C@@H](CO[C@H]1O[C@H](CO)[C@H](O)[C@H](O)[C@H]1O)[C@H](O)[C@H](O)CCCC  Splenocyte  Activity                 %       112
3  CCCCCCCCCCCCCCCCCCCCCCCCC(=O)N[C@@H](CO[C@H]1O[C@H](CO)[C@H](O)[C@H](O)[C@H]1O)[C@H](O)[C@H](O)CCCCC  Splenocyte  Activity                 %       103

// input: 2 compounds below; output: Activity for each
1. CCCCCCCCCCCCCCCCCCCC(=O)N[C@@H](CO[C@H]1O[C@H](CO)[C@H](O)[C@H](O)[C@H]1O)[C@H](O)[C@H](O)CCCCC
2. CCCCCCCCCCCCCCCCCCCCCC(=O)N[C@@H](CO[C@H]1O[C@H](CO)[C@H](O)[C@H](O)[C@H]1O)[C@H](O)[C@H](O)CCCCC

1: 9; 2: 46

Activity lookup needed for CCCCCCCCCCCCCCCCCCCCCCC(=O)N[C@@H](CO[C@H]1O[C@H](CO)[C@H](O)[C@H](O)[C@H]1O)[C@H](O)[C@H](O)CCCCCC , thanks.
113
